The measurements presented in this section are drawn from the NIST ThermoML archive (doi:10.1021/je060139a).

Below: a set of entries, each annotated with reported refractive index.
test: refractive index (Na D-line) (dimensionless); xn = mol fraction of the nth substance listed; details: 308.15 K; 100.5 kPa; Liquid; Standard Abbe refractometry; x1 = 0.45
Form field (numeric): enter value without unit.

[[record]]
compound = "CCC(=O)OCc1ccccc1 [benzyl propanoate] + CCO"
numeric_readout = 1.44977

[[record]]
compound = "CCOC(=O)CC(C)C [ethyl 3-methylbutanoate] + CCO"
numeric_readout = 1.37834

[[record]]
compound = "CCOC(=O)CC(C)=O [ethyl 3-oxobutanoate] + CCO"
numeric_readout = 1.3923

[[record]]
compound = "CC(=O)OCc1ccccc1 [benzyl ethanoate] + CCO"
numeric_readout = 1.44974

[[record]]
compound = "COC(=O)c1ccccc1 [methyl benzoate] + CCO"
numeric_readout = 1.45528


We next turn to a different compound, shown below.
Sure, the documented refractive index for CCOC(=O)c1ccccc1O [ethyl 2-hydroxybenzoate] + CCO is 1.46462

* * *

details: 308.15 K, Wilhelmy plate method
Below: a set of entries, each annotated with reported surface tension liquid-gas.
Report as a plain number; the unit mN/m is understood.

Sample answers from the record:
[[record]]
molecule = "CCC(=O)OCc1ccccc1 [benzyl propanoate]"
numeric_readout = 33.6

[[record]]
molecule = "CCOC(=O)CC(C)C [ethyl 3-methylbutanoate]"
numeric_readout = 22.45

[[record]]
molecule = "CC(=O)OCc1ccccc1 [benzyl ethanoate]"
numeric_readout = 35.3

[[record]]
molecule = "CCOC(=O)c1ccccc1O [ethyl 2-hydroxybenzoate]"
numeric_readout = 35.2

[[record]]
molecule = "COC(=O)c1ccccc1 [methyl benzoate]"
numeric_readout = 35.8


Sure, the documented surface tension liquid-gas for CCO [ethanol] is 21.5

Sure, the documented surface tension liquid-gas for CCOC(=O)CC(C)=O [ethyl 3-oxobutanoate] is 31.1

* * *

test: xn = mol fraction of the nth substance listed; settings: 318.15 K, Wilhelmy plate method, x1 = 0.65
± gives the expanded uncertainty stated by the source.
measured property: surface tension liquid-gas

Sample answers from the record:
[[record]]
compound = "CCOC(=O)CC(C)=O [ethyl 3-oxobutanoate] + CCO"
result = "26.81 ± 0.41 mN/m"

[[record]]
compound = "CCOC(=O)CC(C)C [ethyl 3-methylbutanoate] + CCO"
result = "21.26 ± 0.41 mN/m"


Sure, the documented surface tension liquid-gas for CCOC(=O)c1ccccc1O [ethyl 2-hydroxybenzoate] + CCO is 28 ± 0.4 mN/m

Sure, the documented surface tension liquid-gas for CC(=O)OCc1ccccc1 [benzyl ethanoate] + CCO is 28.78 ± 0.4 mN/m

Sure, the documented surface tension liquid-gas for CCC(=O)OCc1ccccc1 [benzyl propanoate] + CCO is 27.78 ± 0.4 mN/m

Sure, the documented surface tension liquid-gas for COC(=O)c1ccccc1 [methyl benzoate] + CCO is 28.8 ± 0.41 mN/m

* * *

assay: refractive index (Na D-line) (dimensionless); xn = mol fraction of the nth substance listed; conditions: 308.15 K; 100.5 kPa; Liquid; Standard Abbe refractometry; x1 = 0.85
measured property: refractive index
Form field (numeric): enter value without unit.

Sample answers from the record:
[[record]]
compound = "CCOC(=O)c1ccccc1O [ethyl 2-hydroxybenzoate] + CCO"
measured_property = "refractive index"
numeric_readout = 1.50582

[[record]]
compound = "CC(=O)OCc1ccccc1 [benzyl ethanoate] + CCO"
measured_property = "refractive index"
numeric_readout = 1.48626

[[record]]
compound = "CCC(=O)OCc1ccccc1 [benzyl propanoate] + CCO"
measured_property = "refractive index"
numeric_readout = 1.48292

[[record]]
compound = "CCOC(=O)CC(C)C [ethyl 3-methylbutanoate] + CCO"
measured_property = "refractive index"
numeric_readout = 1.38698

[[record]]
compound = "CCOC(=O)CC(C)=O [ethyl 3-oxobutanoate] + CCO"
measured_property = "refractive index"
numeric_readout = 1.4084


We next turn to a different compound, shown below.
Sure, the documented refractive index for COC(=O)c1ccccc1 [methyl benzoate] + CCO is 1.49866

* * *

Below: a set of entries, each annotated with reported refractive index.
assay: refractive index (Na D-line) (dimensionless); xn = mol fraction of the nth substance listed; settings: 308.15 K; 100.5 kPa; Liquid; Standard Abbe refractometry; x1 = 0.15
Numbers after ± are expanded uncertainties.

Sample answers from the record:
[[record]]
molecule = "CCOC(=O)CC(C)C [ethyl 3-methylbutanoate] + CCO"
result = "1.36603 ± 0.00032"

[[record]]
molecule = "COC(=O)c1ccccc1 [methyl benzoate] + CCO"
result = "1.39926 ± 0.00032"

[[record]]
molecule = "CCOC(=O)CC(C)=O [ethyl 3-oxobutanoate] + CCO"
result = "1.3714 ± 0.0003"

[[record]]
molecule = "CC(=O)OCc1ccccc1 [benzyl ethanoate] + CCO"
result = "1.39843 ± 0.00032"

[[record]]
molecule = "CCC(=O)OCc1ccccc1 [benzyl propanoate] + CCO"
result = "1.4002 ± 0.00032"


We next turn to a different molecule, shown below.
Sure, the documented refractive index for CCOC(=O)c1ccccc1O [ethyl 2-hydroxybenzoate] + CCO is 1.40628 ± 0.00032

* * *

assay: xn = mol fraction of the nth substance listed; settings: 288.15 K, Wilhelmy plate method, x1 = 0.7
measured property: surface tension liquid-gas (mN/m)
Report as a plain number; the unit mN/m is understood.

Sample answers from the record:
[[record]]
compound = "CCC(=O)OCc1ccccc1 [benzyl propanoate] + CCO"
measured_property = "surface tension liquid-gas"
numeric_readout = 31.62

[[record]]
compound = "CCOC(=O)CC(C)C [ethyl 3-methylbutanoate] + CCO"
measured_property = "surface tension liquid-gas"
numeric_readout = 24.09

[[record]]
compound = "CC(=O)OCc1ccccc1 [benzyl ethanoate] + CCO"
measured_property = "surface tension liquid-gas"
numeric_readout = 32.9

[[record]]
compound = "CCOC(=O)CC(C)=O [ethyl 3-oxobutanoate] + CCO"
measured_property = "surface tension liquid-gas"
numeric_readout = 30.54

[[record]]
compound = "CCOC(=O)c1ccccc1O [ethyl 2-hydroxybenzoate] + CCO"
measured_property = "surface tension liquid-gas"
numeric_readout = 31.7


Sure, the documented surface tension liquid-gas for COC(=O)c1ccccc1 [methyl benzoate] + CCO is 33.01

* * *

Below: a set of entries, each annotated with reported refractive index.
assay: refractive index (Na D-line) (dimensionless); xn = mol fraction of the nth substance listed; details: 288.15 K; 100.5 kPa; Liquid; Standard Abbe refractometry; x1 = 0.6
Form field (numeric): enter value without unit.

[[record]]
compound = "CCOC(=O)CC(C)C [ethyl 3-methylbutanoate] + CCO"
numeric_readout = 1.39151

[[record]]
compound = "CCOC(=O)c1ccccc1O [ethyl 2-hydroxybenzoate] + CCO"
numeric_readout = 1.49239

[[record]]
compound = "COC(=O)c1ccccc1 [methyl benzoate] + CCO"
numeric_readout = 1.48384


Sure, the documented refractive index for CC(=O)OCc1ccccc1 [benzyl ethanoate] + CCO is 1.47521

Sure, the documented refractive index for CCC(=O)OCc1ccccc1 [benzyl propanoate] + CCO is 1.47384

Sure, the documented refractive index for CCOC(=O)CC(C)=O [ethyl 3-oxobutanoate] + CCO is 1.4079

* * *

Below: a set of entries, each annotated with reported refractive index.
experiment: refractive index (Na D-line) (dimensionless); xn = mol fraction of the nth substance listed; details: 308.15 K; 100.5 kPa; Liquid; Standard Abbe refractometry; x1 = 0.1
± gives the expanded uncertainty stated by the source.

Sample answers from the record:
[[record]]
molecule = "CCOC(=O)c1ccccc1O [ethyl 2-hydroxybenzoate] + CCO"
measured_property = "refractive index"
result = "1.39159 ± 0.00032"

[[record]]
molecule = "COC(=O)c1ccccc1 [methyl benzoate] + CCO"
measured_property = "refractive index"
result = "1.38617 ± 0.00032"

[[record]]
molecule = "CCOC(=O)CC(C)C [ethyl 3-methylbutanoate] + CCO"
measured_property = "refractive index"
result = "1.36295 ± 0.00032"


Sure, the documented refractive index for CC(=O)OCc1ccccc1 [benzyl ethanoate] + CCO is 1.38588 ± 0.00032

Sure, the documented refractive index for CCC(=O)OCc1ccccc1 [benzyl propanoate] + CCO is 1.38756 ± 0.00032

Sure, the documented refractive index for CCOC(=O)CC(C)=O [ethyl 3-oxobutanoate] + CCO is 1.3666 ± 0.0003

* * *

assay: xn = mol fraction of the nth substance listed; conditions: 318.15 K, Wilhelmy plate method, x1 = 0.5
measured property: surface tension liquid-gas (mN/m)
Report as a plain number; the unit mN/m is understood.

Sample answers from the record:
[[record]]
compound = "CCOC(=O)c1ccccc1O [ethyl 2-hydroxybenzoate] + CCO"
measured_property = "surface tension liquid-gas"
numeric_readout = 26.25

[[record]]
compound = "CCC(=O)OCc1ccccc1 [benzyl propanoate] + CCO"
measured_property = "surface tension liquid-gas"
numeric_readout = 26.28

[[record]]
compound = "CC(=O)OCc1ccccc1 [benzyl ethanoate] + CCO"
measured_property = "surface tension liquid-gas"
numeric_readout = 26.93

[[record]]
compound = "CCOC(=O)CC(C)C [ethyl 3-methylbutanoate] + CCO"
measured_property = "surface tension liquid-gas"
numeric_readout = 21.12

[[record]]
compound = "CCOC(=O)CC(C)=O [ethyl 3-oxobutanoate] + CCO"
measured_property = "surface tension liquid-gas"
numeric_readout = 25.29


We next turn to a different compound, shown below.
Sure, the documented surface tension liquid-gas for COC(=O)c1ccccc1 [methyl benzoate] + CCO is 27
